// provenance: ChEMBL document CHEMBL5579843

System: Polyamine deacetylase HDAC10 (Homo sapiens)
Sequence (Q969S8 whole entry): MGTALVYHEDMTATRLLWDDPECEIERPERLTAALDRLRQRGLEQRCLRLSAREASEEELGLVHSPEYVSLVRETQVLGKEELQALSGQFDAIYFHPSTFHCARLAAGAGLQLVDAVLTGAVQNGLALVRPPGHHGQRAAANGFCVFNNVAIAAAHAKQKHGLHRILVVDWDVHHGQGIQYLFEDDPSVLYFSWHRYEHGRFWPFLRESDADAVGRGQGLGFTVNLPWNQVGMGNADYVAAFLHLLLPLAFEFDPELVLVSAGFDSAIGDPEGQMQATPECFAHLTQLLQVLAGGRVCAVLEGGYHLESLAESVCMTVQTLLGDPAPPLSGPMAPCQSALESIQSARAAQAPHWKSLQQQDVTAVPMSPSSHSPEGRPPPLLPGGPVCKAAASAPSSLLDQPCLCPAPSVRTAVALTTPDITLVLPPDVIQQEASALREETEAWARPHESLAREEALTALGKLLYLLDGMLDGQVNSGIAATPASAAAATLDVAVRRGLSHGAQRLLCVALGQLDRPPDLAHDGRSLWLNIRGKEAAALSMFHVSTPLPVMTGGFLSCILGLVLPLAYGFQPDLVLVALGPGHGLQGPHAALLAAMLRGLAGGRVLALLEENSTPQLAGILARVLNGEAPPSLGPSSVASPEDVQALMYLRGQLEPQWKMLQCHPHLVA

[
  {
    "Item smiles": "O=C(NO)c1ccc(CN2CCc3c(n(CC4CC4)c4ccc(F)cc34)C2)cc1",
    "System": "Polyamine deacetylase HDAC10 (Homo sapiens)",
    "IC50 [nM]": 524
  }
]
